- measurement_target: T1, Spy F115I (E. coli, UniProt P77754 24-161, F115I)
- T1 construct: N-terminal serine from the Sumo fusion construct; the footnote says it of Spy purification in general; Spy, E. coli, mature protein; numbers count on: the mature protein; Variant of m1 found by genetic selection, remade by site-directed mutagenesis; also called super-Spy variant; source: purified; not shown: SUMO, N-terminal, cleaved (from the N-terminal serine said of Spy purification in general)
- T1 sequence: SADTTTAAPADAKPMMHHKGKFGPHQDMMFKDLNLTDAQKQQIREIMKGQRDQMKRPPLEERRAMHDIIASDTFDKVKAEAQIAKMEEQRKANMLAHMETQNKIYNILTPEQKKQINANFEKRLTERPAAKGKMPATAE
- run_description: BLI; biotinylated Im7 L53A I54A immobilised on streptavidin sensors (Octet RED); Spy variants at 2, 1, 0.5, 0.25 and 0.125 µM; 25°C; 40 mM HEPES, 150 mM NaCl, pH 7.5; 1:1 binding model, KD = koff/kon; apparent
- stated_conditions: both partners purified
value_kind: pKd
One number for each entry, as −log10 of the molar value.

Specify pKd for Biotinylated Im7 L53A I54A (natural protein, biotin (EZ-link NHS-biotin at 1:1 molar ratio; site not stated), N-terminal serine from the Sumo fusion construct; the footnote says it of Im7 purification in general; immunity protein 7 (Im7), colicin E7 immunity protein; Same protein as m10 with biotin; held on streptavidin sensors; also called biotin-conjugated Im7 L53A I54A; immunity protein 7 L53A I54A; source: purified from a Sumo fusion construct (Quan et al., 2011), biotinylated with EZ-link …) SMELKNSISDYTEAEFVQLLKEIEKENVAATDDVLDVLLEHFVKITEHPDGTDAAYYPSDNRDDSPEGIVKEIKEWRAANGKPGFKQG and stop. 5.93
